Here the recorded melting point is given for each entry.

INSERT INTO results (compound, measurement) VALUES
  ('CC(C)N1CCC(n2nc(-c3c(-c4ccccc4)nn4ccccc34)ccc2=O)CC1', '158 °C'),
  ('c1ccc2c(c1)-c1ccccc1C2CC1c2ccccc2-c2ccccc21', '210 to 212 °C'),
  ('COC(=O)c1cccc2nc(N)sc12', '232 to 233 °C'),
  ('O=C1CCC(N2Cc3c(CNC(=O)Nc4ccccc4)cccc3C2=O)C(=O)N1 (stereo not given)', '328 to 330 °C'),
  ('COc1ccc(S(=O)O)c(OC)c1', '89 to 91 °C'),
  ('O=[N+]([O-])c1ccc(O)cc1SCCO', '161 °C');

Record request: melting point value, item CNC1=NS(=O)(=O)N=C1NCCSCc1csc(N)n1
200 to 201 °C

Record request: melting point value, item CCOC(=O)C1=Cc2cc(Br)c(F)cc2OC1C(F)(F)F (stereo not given)
98.5 to 100 °C

Record request: melting point value, item Cc1csc2nc(-n3cccn3)nc(NCc3ccc4c(c3)OCO4)c12
210 °C
